Target: T1, recombinant human IL-4Rα (extracellular domain, tagged) (human, UniProt P24394 26-232)
T1 construct: it is written second here only for want of that; also called hIL-4Rα; not shown: His-tag or other conventionally used tag
Experiment: SPR, Biacore T200; antibody (human IgG4) on the sensor chip, human IL-4Rα at 0.625-12.5 nM
measure: kon (M⁻¹ s⁻¹)
Your answer is read as M⁻¹ s⁻¹, so omit the unit and give the number.

Example results:
{"columns": ["binder", "kon (M⁻¹ s⁻¹)"],
 "data": [
  ["C27-55-55 (antibody, human IgG4, V domains shown) VH: EVQLLESGGGLVQPGGSLRLSCAASGFTLSSYAMHWVRQAPGKGLEYVSGISPTGGSTYYANSVKGRFTISRDNPKNTLFLQMSSLRAEDTAVYYCVRVKGRYRGGMDVWGQGTTVTVSS VL: EIVLTQSPGTLSLSPGERATLSCRASQNISTAYLAWYQQKPGQAPRLLIYGTSRRATGIPDRFSGSGSGTDFTLTISRLEPEDFAVYYCQLYGTSSVTFGQGTKLEIK", 154000],
  ["C27-24-56 (antibody, human IgG4, V domains shown) VH: EVQLLESGGGLVQPGGSLRLSCAASGFTLSSYAMHWVRQAPGKGLEYVSGISPTSGSTYYANSVKGRFTISRDNPKNTLFLQMSSLRAEDTAVYYCVRVKVRYRGGMDVWGQGTTVTVSS VL: EIVLTQSPGTLSLSPGERATLSCRASQSVSSAYLAWYQQKPGQAPRLLIYGTSRRATGIPDRFSGSGSGTDFTLTISRLEPEDFAVYYCQLYGASSVTFGQGTKLEIK", 92700]
]}

// returns reported kon for input C27-78-78 (antibody, human IgG4, V domains shown) VH: EVQLLESGGGLVQPGGSLRLSCAASGFTLSSYAMHWVRQAPGKGLEYVSGISPSSASTYYANSVKGRFTISRDNPKNTLFLQMSSLRAEDTAVYYCVRVKSKYRGGMDVWGQGTTVTVSS VL: EIVLTQSPGTLSLSPGERATLSCRASQSISTAYLAWYQQKPGQAPRLLIYGTSRRATGIPDRFSGSGSGTDFTLTISRLEPEDFAVYYCQLYGASSVTFGQGTKLEIK 115000

Follow-up item: C27-56-56 (antibody, human IgG4, V domains shown) VH: EVQLLESGGGLVQPGGSLRLSCAASGFTLSSYAMHWVRQAPGKGLEYVSGISPSSTSTYYANSVKGRFTISRDNPKNTLFLQMSSLRAEDTAVYYCVRVKVLYRGGMDVWGQGTTVTVSS VL: EIVLTQSPGTLSLSPGERATLSCRASQSVSSAYLAWYQQKPGQAPRLLIYGTSRRATGIPDRFSGSGSGTDFTLTISRLEPEDFAVYYCQLYGASSVTFGQGTKLEIK 84500

Follow-up item: C27-Y2-Y2 (antibody, human IgG4, V domains shown) VH: EVQLLESGGGLVQPGGSLRLSCAASGFTLSSYAMHWVRQAPGKGLEYVSGISYSSASTYYANSVKGRFTISRDNPKNTLFLQMSSLRAEDTAVYYCVRVKVRYRGGMDVWGQGTTVTVSS VL: EIVLPQSPGTLSLSPGERATLSCRASQGVSSAYLAWYQQKPGQAPRLLIYGTSRRATGIPDRFSGSGSGTDFTLTISRLEPEDFAVYYCQLYGSTSVTFGQGTKLEIK 139000

Follow-up item: C27-7-33 (antibody, human IgG4, V domains shown) VH: EVQLLESGGGLVQPGGSLRLSCAASGFTLSSYAMHWVRQAPGKGLEYVSGISPSGVSTYYANSVKGRFTISRDNPKNTLFLQMSSLRAEDTAVYYCVRVKVKYRGGMDVWGQGTTVTVSS VL: EIVLTQSPGTLSLSPGERATLSCRASQGISSAYLAWYQQKPGQAPRLLIYGTSRRATGIPDRFSGSGSGTDFTLTISRLEPEDFAVYYCQLYGATSVTFGQGTKLEIK 134000

Follow-up item: C27-82-58 (antibody, human IgG4, V domains shown) VH: EVQLLESGGGLVQPGGSLRLSCAASGFTLSSYAMHWVRQAPGKGLEYVSGISGNSASTYYANSVKGRFTISRDNPKNTLFLQMSSLRAEDTAVYYCVRVKLKYRGGMDVWGQGTTVTVSS VL: EIVLTQSPGTLSLSPGERATLSCRASQDISSAYLAWYQQKPGQAPRLLIYGTSRRATGIPDRFSGSGSGTDFTLTISRLEPEDFAVYYCQLYGATSVTFGQGTKLEIK 152000

Follow-up item: C27-36-36 (antibody, human IgG4, V domains shown) VH: EVQLLESGGGLVQPGGSLRLSCAASGFTLSSYAMHWVRQAPGKGLEYVSGISPSGVSTYYANSVKGRFTISRDNPKNTLFLQMSSLRAEDTAVYYCVRVKVKYRGGMDVWGQGTTVTVSS VL: EIVLTQSPGTLSLSPGERATLSCRASQNISTAYLAWYQQKPGQAPRLLIYGTSRRATGIPDRFSGSGSGTDFTLTISRLEPEDFAVYYCQLYGATSVTFGQGTKLEIK 137000

Follow-up item: C27-6-33 (antibody, human IgG4, V domains shown) VH: EVQLLESGGGLVQPGGSLRLSCAASGFTLSSYAMHWVRQAPGKGLEYVSGISPSGSSTYYANSVKGRFTISRDNPKNTLFLQMSSLRAEDTAVYYCVRSKVRYRGGMDVWGQGTTVTVSS VL: EIVLTQSPGTLSLSPGERATLSCRASQGISSAYLAWYQQKPGQAPRLLIYGTSRRATGIPDRFSGSGSGTDFTLTISRLEPEDFAVYYCQLYGATSVTFGQGTKLEIK 80400

Follow-up item: C27-47-56 (antibody, human IgG4, V domains shown) VH: EVQLLESGGGLVQPGGSLRLSCAASGFTLSSYAMHWVRQAPGKGLEYVSGISPTGTSTYYANSVKGRFTISRDNPKNTLFLQMSSLRAEDTAVYYCVRVKGAYRGGMDVWGQGTTVTVSS VL: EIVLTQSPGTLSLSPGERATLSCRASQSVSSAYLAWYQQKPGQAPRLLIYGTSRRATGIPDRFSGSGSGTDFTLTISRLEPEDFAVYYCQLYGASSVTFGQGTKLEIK 107000

Follow-up item: C27 (antibody, human IgG4, V domains shown, also called parent antibody C27; lead parent antibody) VH: EVQLLESGGGLVQPGGSLRLSCAASGFTLSSYAMHWVRQAPGKGLEYVSGISSNGGSTYYANSVKGRFTISRDNPKNTLFLQMSSLRAEDTAVYYCVRVKVGYRGGMDVWGQGTTVTVSS VL: ETTLTQSPDTLPLSPGDRASLSCRASQSVSSAYLAWYQQKPGQAPRLLIYGTSRRATGVPGRFSGSGSGTDFTLTISRLEPEDFAVYYCQLYGSSSVTFGQGTKLEIK 719000
